protocol-details: Mean (%CV) PK parameters for CL(mL/min/kg).
Assay type: ADME, organism-based
study-conditions: rat, in vivo
outcome-measure: clearance (mL/min/kg)
Form entry: value (mL/min/kg) — number only.

Fill in: clearance of CCCCOc1ccc(S(=O)(=O)N2C[C@@H](N3CCOCC3)C[C@@H]2C(=O)NO)cc1 is ___
30

###

pIC50: recorded values
assay-target: Interstitial collagenase (Homo sapiens)
Sequence (P03956 whole entry): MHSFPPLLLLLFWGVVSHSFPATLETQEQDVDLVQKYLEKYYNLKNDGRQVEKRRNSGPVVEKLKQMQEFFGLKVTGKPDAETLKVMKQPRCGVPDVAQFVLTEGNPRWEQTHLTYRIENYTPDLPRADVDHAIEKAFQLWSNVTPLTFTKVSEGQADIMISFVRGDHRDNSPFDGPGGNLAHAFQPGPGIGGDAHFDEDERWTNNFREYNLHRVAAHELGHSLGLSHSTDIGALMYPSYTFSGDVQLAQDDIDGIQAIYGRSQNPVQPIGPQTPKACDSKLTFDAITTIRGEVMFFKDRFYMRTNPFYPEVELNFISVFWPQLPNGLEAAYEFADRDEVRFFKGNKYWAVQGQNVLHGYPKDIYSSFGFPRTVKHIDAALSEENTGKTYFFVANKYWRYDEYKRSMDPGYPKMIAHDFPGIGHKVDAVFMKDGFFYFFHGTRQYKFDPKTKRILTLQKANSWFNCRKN
Schema: pIC50 number; meaning minus log10 of the concentration expressed in molar units.

Recorded pIC50, per entry:
>>> df
                                test_smiles                             assay_target  result
0  CCCCOc1ccc(S(=O)(=O)N2C[C@@H](NC(=O)[C@H](C)O)C[C@@H]2C(=O)NO)cc1  Interstitial collagenase (Homo sapiens)    5.92
1  COc1ccc(S(=O)(=O)N2C[C@@H](N(Cc3cccnc3)S(C)(=O)=O)C[C@@H]2C(=O)NO)cc1  Interstitial collagenase (Homo sapiens)    7.13
2  CCCOc1ccc(S(=O)(=O)N2C[C@@H](N3CCCCC3)C[C@@H]2C(=O)NO)cc1  Interstitial collagenase (Homo sapiens)    6.68
3  CCCOc1ccc(S(=O)(=O)N2C[C@@H](N3C(=O)CN(C)C3=O)C[C@@H]2C(=O)NO)cc1  Interstitial collagenase (Homo sapiens)    6.59
4  CCCN(C(=O)[C@H](C)O)[C@H]1C[C@H](C(=O)NO)N(S(=O)(=O)c2ccc(OC)cc2)C1  Interstitial collagenase (Homo sapiens)    7.06
5  CC(C)COc1ccc(S(=O)(=O)N2C[C@@H](N3C(=O)CN(C)C3=O)C[C@@H]2C(=O)NO)cc1  Interstitial collagenase (Homo sapiens)    6.52

Give recorded pIC50 with Interstitial collagenase (Homo sapiens) for the following molecule: COc1ccc(S(=O)(=O)N2C[C@@H](NC(=O)[C@H](Cc3ccccc3)OCc3ccccc3)C[C@@H]2C(=O)NO)cc1
6.62

Give recorded pIC50 with Interstitial collagenase (Homo sapiens) for the following molecule: CCCCOc1ccc(S(=O)(=O)N2C[C@@H](N3CCCS3(=O)=O)C[C@@H]2C(=O)NO)cc1
6.64

###

assay-target: Matrilysin (Homo sapiens)
Sequence (P09237 whole entry): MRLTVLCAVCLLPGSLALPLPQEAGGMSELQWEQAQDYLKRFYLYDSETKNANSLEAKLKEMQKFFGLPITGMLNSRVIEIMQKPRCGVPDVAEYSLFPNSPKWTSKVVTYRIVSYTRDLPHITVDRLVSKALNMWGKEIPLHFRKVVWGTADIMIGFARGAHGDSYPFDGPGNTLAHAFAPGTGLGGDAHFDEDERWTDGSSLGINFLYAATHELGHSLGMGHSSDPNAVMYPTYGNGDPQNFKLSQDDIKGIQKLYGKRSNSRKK
outcome-measure: IC50 (nM)
Form entry: value (nM) — number only.

Recorded IC50, per entry:
In [3]: df
Out[3]:
                                test_smiles  result
0  COc1ccc(S(=O)(=O)N[C@H]2C[C@H](C(=O)NO)N(S(=O)(=O)c3ccc(OC)cc3)C2)cc1    3000
1  CCCCOc1ccc(S(=O)(=O)N2C[C@@H](N3CCCS3(=O)=O)C[C@@H]2C(=O)NO)cc1     680
2  O=C(NO)[C@H]1C[C@H](N2CCOCC2)CN1S(=O)(=O)c1ccc(Oc2ccccc2)cc1     710
3  CCCCOc1ccc(S(=O)(=O)N2C[C@@H](NC(=O)COC)C[C@@H]2C(=O)NO)cc1    4900

Give recorded IC50 with Matrilysin (Homo sapiens) for the following compound: CCCCOc1ccc(S(=O)(=O)N2C[C@@H](NC(=O)[C@H](C)O)C[C@@H]2C(=O)NO)cc1
4200

Give recorded IC50 with Matrilysin (Homo sapiens) for the following compound: C=CCN1CC(=O)N([C@H]2C[C@H](C(=O)NO)N(S(=O)(=O)c3ccc(OCCC)cc3)C2)C1=O
2600

Give recorded IC50 with Matrilysin (Homo sapiens) for the following compound: CCCOc1ccc(S(=O)(=O)N2C[C@@H](N3C(=O)CN(C)C3=O)C[C@@H]2C(=O)NO)cc1
2600

###

protocol-details: Pharmacokinetic half time was determined intravenously in rats.
Assay type: ADME, organism-based
study-conditions: rat, in vivo, iv
outcome-measure: half-life (min)
Form entry: value (min) — number only.

Fill in: half-life of CCCCOc1ccc(S(=O)(=O)N2C[C@@H](N3CCOCC3)C[C@@H]2C(=O)NO)cc1 is ___
24

###

protocol-details: Mean (%CV) PK parameters for Vdss(mL/kg).
Assay type: ADME, organism-based
study-conditions: rat, in vivo; read-out: Vdss
outcome-measure: Vd (L/kg)
Form entry: value (L/kg) — number only.

Fill in: Vd of CCCCOc1ccc(S(=O)(=O)N2C[C@@H](N3CCOCC3)C[C@@H]2C(=O)NO)cc1 is ___
0.408

###

assay-target: Collagenase 3 (Homo sapiens)
protocol-details: In vitro inhibitory activity against human recombinant matrix metalloprotease-13 (collagenase-3)
pIC50: −log10 of the molar value.
Record Y whenever pIC50 is at 9 or higher; record N when lower.

Here are 3 molecules together with their reported answers.
                                test_smiles  group_label
0  COc1ccc(S(=O)(=O)N2C[C@@H](NC(=O)[C@H](Cc3ccccc3)OCc3ccccc3)C[C@@H]2C(=O)NO)cc1            N
1  COc1ccc(S(=O)(=O)N2C[C@@H](N3CCCS3(=O)=O)C[C@@H]2C(=O)NO)cc1            Y
2  COc1ccc(S(=O)(=O)N2C[C@@H](N3C(=O)CN(C)C3=O)C[C@@H]2C(=O)NO)cc1            Y

Decide: pIC50 of C=CCN1CC(=O)N([C@H]2C[C@H](C(=O)NO)N(S(=O)(=O)c3ccc(OCCOC)cc3)C2)C1=O >= 9?
N

Decide: pIC50 of CCCCOc1ccc(S(=O)(=O)N2C[C@@H](N3CCCS3(=O)=O)C[C@@H]2C(=O)NO)cc1 >= 9?
Y

Decide: pIC50 of CCCCOc1ccc(S(=O)(=O)N2C[C@@H](N3C(=O)CN(CCC)C3=O)C[C@@H]2C(=O)NO)cc1 >= 9?
Y

Decide: pIC50 of O=C(NO)[C@H]1C[C@H](N2CCOCC2)CN1S(=O)(=O)c1ccc(Oc2ccccc2)cc1 >= 9?
Y

Decide: pIC50 of COc1ccc(S(=O)(=O)N[C@H]2C[C@H](C(=O)NO)N(S(=O)(=O)c3ccc(OC)cc3)C2)cc1 >= 9?
N

Decide: pIC50 of CN1CC(=O)N([C@H]2C[C@H](C(=O)NO)N(S(=O)(=O)c3ccc(Oc4ccccc4)cc3)C2)C1=O >= 9?
Y

###

assay-target: Matrilysin (Homo sapiens, UniProt P09237)
Sequence (P09237 whole entry): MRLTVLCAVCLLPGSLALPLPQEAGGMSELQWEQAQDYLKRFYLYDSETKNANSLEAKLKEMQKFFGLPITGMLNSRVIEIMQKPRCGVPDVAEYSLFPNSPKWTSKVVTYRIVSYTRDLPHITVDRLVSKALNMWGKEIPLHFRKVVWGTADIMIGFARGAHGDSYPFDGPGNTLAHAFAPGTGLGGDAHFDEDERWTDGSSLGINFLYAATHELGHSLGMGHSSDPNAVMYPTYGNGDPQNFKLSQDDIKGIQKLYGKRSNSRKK
We label by threshold. Values of IC50 strictly beneath 3000 nM are class 1. Values of 3000 nM and up are class 0.

>>> df
                                test_smiles                              assay_target  group_label
0  CCCCOc1ccc(S(=O)(=O)N2C[C@@H](NC(=O)[C@@H](O)CC(C)C)C[C@@H]2C(=O)NO)cc1  Matrilysin (Homo sapiens, UniProt P09237)      class 1
1  O=C(NO)[C@H]1C[C@H](N2CCCCC2)CN1S(=O)(=O)c1ccc(Oc2ccccc2)cc1  Matrilysin (Homo sapiens, UniProt P09237)      class 1
2  CN1CC(=O)N([C@H]2C[C@H](C(=O)NO)N(S(=O)(=O)c3ccc(Oc4ccccc4)cc3)C2)C1=O  Matrilysin (Homo sapiens, UniProt P09237)      class 1
3  CCCN([C@H]1C[C@H](C(=O)NO)N(S(=O)(=O)c2ccc(OC)cc2)C1)S(C)(=O)=O  Matrilysin (Homo sapiens, UniProt P09237)      class 1
4  CCCN(C(=O)[C@H](C)O)[C@H]1C[C@H](C(=O)NO)N(S(=O)(=O)c2ccc(OC)cc2)C1  Matrilysin (Homo sapiens, UniProt P09237)      class 0
5  CCCCOc1ccc(S(=O)(=O)N2C[C@@H](N3CCS(=O)(=O)CC3)C[C@@H]2C(=O)NO)cc1  Matrilysin (Homo sapiens, UniProt P09237)      class 0

Does the reported IC50 of CCCOc1ccc(S(=O)(=O)N2C[C@@H](N3CCCC3)C[C@@H]2C(=O)NO)cc1 stay below 3000 nM?
class 0

Does the reported IC50 of CCCCOc1ccc(S(=O)(=O)N2C[C@@H](NS(C)(=O)=O)C[C@@H]2C(=O)NO)cc1 stay below 3000 nM?
class 0
